Hi there, I'd appreciate the recorded % of Prodrug Remaining for every entry that follows.
- Measurement Context: human, s9, 1 h, 5 µM
Write the number in % without appending the unit.

# get_value(readout='% of Prodrug Remaining', item= CC(C)C(=O)OC(OC(=O)NC[C@H](CC(=O)[O-])c1ccc(Cl)cc1)C(C)C.[Na+] (some centres unmarked) )
2

# get_value(readout='% of Prodrug Remaining', item= CC(C)C(=O)OC(OC(=O)NC[C@H](CC(=O)[O-])c1ccc(Cl)cc1)C1CCCCC1.[Na+] (some centres unmarked) )
13

# get_value(readout='% of Prodrug Remaining', item= CC(C)(C)C(=O)OCOC(=O)NC[C@H](CC(=O)[O-])c1ccc(Cl)cc1.[Na+] )
1

# get_value(readout='% of Prodrug Remaining', item= CCC[C@H](OC(=O)NC[C@H](CC(=O)[O-])c1ccc(Cl)cc1)OC(=O)C(C)C.[Na+] )
6

# get_value(readout='% of Prodrug Remaining', item= CCCC(=O)OC(OC(=O)NC[C@H](CC(=O)[O-])c1ccc(Cl)cc1)C1CCCCC1.[Na+] (some centres unmarked) )
4

# get_value(readout='% of Prodrug Remaining', item= CC(C)C(=O)O[C@H](C)OC(=O)NC[C@H](CC(=O)[O-])c1ccc(Cl)cc1.[Na+] )
2

# get_value(readout='% of Prodrug Remaining', item= O=C([O-])C[C@@H](CNC(=O)OCOC(=O)c1cccs1)c1ccc(Cl)cc1.[Na+] )
2

# get_value(readout='% of Prodrug Remaining', item= CC(OC(=O)NC[C@H](CC(=O)[O-])c1ccc(Cl)cc1)OC(=O)C(C)C.[Na+] (some centres unmarked) )
3

# get_value(readout='% of Prodrug Remaining', item= CC(=O)OCOC(=O)NC[C@H](CC(=O)[O-])c1ccc(Cl)cc1.[Na+] )
2

# get_value(readout='% of Prodrug Remaining', item= CC(C)CC(=O)OCOC(=O)NC[C@H](CC(=O)[O-])c1ccc(Cl)cc1.[Na+] )
3

# get_value(readout='% of Prodrug Remaining', item= CC(C)C(=O)O[C@H](OC(=O)NC[C@H](CC(=O)[O-])c1ccc(Cl)cc1)C(C)C.[Na+] )
7

# get_value(readout='% of Prodrug Remaining', item= O=C([O-])C[C@@H](CNC(=O)OCOC(=O)c1ccccc1)c1ccc(Cl)cc1.[Na+] )
2

# get_value(readout='% of Prodrug Remaining', item= CC(=O)OC(OC(=O)NC[C@H](CC(=O)[O-])c1ccc(Cl)cc1)C(C)C.[Na+] (some centres unmarked) )
15

# get_value(readout='% of Prodrug Remaining', item= CCOC(C)(OCC)C(=O)OCOC(=O)NC[C@H](CC(=O)[O-])c1ccc(Cl)cc1.[Na+] )
3

----------
- Measurement Context: aqueous buffer, 1 h, pH 7.4
Readout: % of Baclofen Released (%)
Write the number in % without appending the unit.

# get_value(readout='% of Baclofen Released', item= CCCC(=O)OC(OC(=O)NC[C@H](CC(=O)[O-])c1ccc(Cl)cc1)C1CCCCC1.[Na+] (some centres unmarked) )
0

# get_value(readout='% of Baclofen Released', item= CC(C)CC(=O)OCOC(=O)NC[C@H](CC(=O)[O-])c1ccc(Cl)cc1.[Na+] )
1

# get_value(readout='% of Baclofen Released', item= O=C([O-])C[C@@H](CNC(=O)OCOC(=O)c1ccccc1)c1ccc(Cl)cc1.[Na+] )
0

# get_value(readout='% of Baclofen Released', item= CC(=O)OCOC(=O)NC[C@H](CC(=O)[O-])c1ccc(Cl)cc1.[Na+] )
3

# get_value(readout='% of Baclofen Released', item= CCOC(C)(OCC)C(=O)OCOC(=O)NC[C@H](CC(=O)[O-])c1ccc(Cl)cc1.[Na+] )
2

# get_value(readout='% of Baclofen Released', item= O=C([O-])C[C@@H](CNC(=O)OCOC(=O)c1cccs1)c1ccc(Cl)cc1.[Na+] )
0

# get_value(readout='% of Baclofen Released', item= CC(OC(=O)NC[C@H](CC(=O)[O-])c1ccc(Cl)cc1)OC(=O)C(C)C.[Na+] (some centres unmarked) )
0

# get_value(readout='% of Baclofen Released', item= CC(C)(C)C(=O)OCOC(=O)NC[C@H](CC(=O)[O-])c1ccc(Cl)cc1.[Na+] )
0

# get_value(readout='% of Baclofen Released', item= CC(C)C(=O)OC(OC(=O)NC[C@H](CC(=O)[O-])c1ccc(Cl)cc1)C1CCCCC1.[Na+] (some centres unmarked) )
0

# get_value(readout='% of Baclofen Released', item= CC(C)C(=O)O[C@H](OC(=O)NC[C@H](CC(=O)[O-])c1ccc(Cl)cc1)C(C)C.[Na+] )
0

# get_value(readout='% of Baclofen Released', item= CCC[C@H](OC(=O)NC[C@H](CC(=O)[O-])c1ccc(Cl)cc1)OC(=O)C(C)C.[Na+] )
0

# get_value(readout='% of Baclofen Released', item= CC(C)C(=O)OC(OC(=O)NC[C@H](CC(=O)[O-])c1ccc(Cl)cc1)C(C)C.[Na+] (some centres unmarked) )
0

# get_value(readout='% of Baclofen Released', item= CC(=O)OC(OC(=O)NC[C@H](CC(=O)[O-])c1ccc(Cl)cc1)C(C)C.[Na+] (some centres unmarked) )
1

# get_value(readout='% of Baclofen Released', item= CC(C)C(=O)O[C@H](C)OC(=O)NC[C@H](CC(=O)[O-])c1ccc(Cl)cc1.[Na+] )
0

----------
- Tested on: Caco-2 cells
- Measurement Context: human, Caco-2, 200 uM
Hi there, I'd appreciate the recorded Ratio A-BB-A for every entry that follows.
// return a plain number; no unit text

# get_value(readout='Ratio A-BB-A', item= O=C([O-])C[C@@H](CNC(=O)OCOC(=O)c1ccccc1)c1ccc(Cl)cc1.[Na+] )
5.9

# get_value(readout='Ratio A-BB-A', item= CC(C)(C)C(=O)OCOC(=O)NC[C@H](CC(=O)[O-])c1ccc(Cl)cc1.[Na+] )
11.8

# get_value(readout='Ratio A-BB-A', item= CC(C)C(OC(=O)NC[C@H](CC(=O)O)c1ccc(Cl)cc1)OC(=O)C(C)(C)C (stereo partly drawn) )
2.3

# get_value(readout='Ratio A-BB-A', item= COc1ccc(C(=O)OCOC(=O)NC[C@H](CC(=O)[O-])c2ccc(Cl)cc2)cc1.[Na+] )
2.4

# get_value(readout='Ratio A-BB-A', item= CCCC(=O)OC(C)OC(=O)NC[C@H](CC(=O)[O-])c1ccc(Cl)cc1.[Na+] (stereo partly drawn) )
7.6

# get_value(readout='Ratio A-BB-A', item= CCCC(OC(C)=O)OC(=O)NC[C@H](CC(=O)[O-])c1ccc(Cl)cc1.[Na+] (stereo partly drawn) )
11.2

# get_value(readout='Ratio A-BB-A', item= CCCC(=O)OC(CCC)OC(=O)NC[C@H](CC(=O)[O-])c1ccc(Cl)cc1.[Na+] (stereo partly drawn) )
3.2

# get_value(readout='Ratio A-BB-A', item= CCCC(=O)OC(OC(=O)NC[C@H](CC(=O)O)c1ccc(Cl)cc1)C(C)C (stereo partly drawn) )
6.9

# get_value(readout='Ratio A-BB-A', item= CCCC(OC(=O)NC[C@H](CC(=O)[O-])c1ccc(Cl)cc1)OC(=O)c1ccccc1.[Na+] (stereo partly drawn) )
7.1

# get_value(readout='Ratio A-BB-A', item= CCC(=O)OC(OC(=O)NC[C@H](CC(=O)[O-])c1ccc(Cl)cc1)C(C)C.[Na+] (stereo partly drawn) )
6.5

# get_value(readout='Ratio A-BB-A', item= CCCC(=O)OC(CC)OC(=O)NC[C@H](CC(=O)[O-])c1ccc(Cl)cc1.[Na+] (stereo partly drawn) )
7.9

# get_value(readout='Ratio A-BB-A', item= CC(OC(=O)NC[C@H](CC(=O)[O-])c1ccc(Cl)cc1)OC(=O)C(C)(C)C.[Na+] (stereo partly drawn) )
1.5

# get_value(readout='Ratio A-BB-A', item= CCCC(OC(=O)NC[C@H](CC(=O)[O-])c1ccc(Cl)cc1)OC(=O)C(C)C.[Na+] (stereo partly drawn) )
3.5

# get_value(readout='Ratio A-BB-A', item= CC(=O)OCOC(=O)NC[C@H](CC(=O)[O-])c1ccc(Cl)cc1.[Na+] )
1.2

# get_value(readout='Ratio A-BB-A', item= CCOC(C)(OCC)C(=O)OCOC(=O)NC[C@H](CC(=O)[O-])c1ccc(Cl)cc1.[Na+] )
3.0

----------
- Measurement Context: human, s9, 1 h, 2 µM
Hi there, I'd appreciate the recorded % of Baclofen Released for every entry that follows.
Write the number in % without appending the unit.

# get_value(readout='% of Baclofen Released', item= CC(C)C(=O)O[C@H](OC(=O)NC[C@H](CC(=O)[O-])c1ccc(Cl)cc1)C(C)C.[Na+] [(100)] )
83

# get_value(readout='% of Baclofen Released', item= CC(=O)OC(OC(=O)NC[C@H](CC(=O)[O-])c1ccc(Cl)cc1)C(C)C.[Na+] (some centres unmarked) [(23)] )
105

# get_value(readout='% of Baclofen Released', item= CC(OC(=O)NC[C@H](CC(=O)[O-])c1ccc(Cl)cc1)OC(=O)C(C)C.[Na+] (some centres unmarked) [(33)] )
101

# get_value(readout='% of Baclofen Released', item= O=C([O-])C[C@@H](CNC(=O)OCOC(=O)c1ccccc1)c1ccc(Cl)cc1.[Na+] [(12)] )
100

# get_value(readout='% of Baclofen Released', item= CC(C)(C)C(=O)OCOC(=O)NC[C@H](CC(=O)[O-])c1ccc(Cl)cc1.[Na+] [(20)] )
100

# get_value(readout='% of Baclofen Released', item= CC(=O)OCOC(=O)NC[C@H](CC(=O)[O-])c1ccc(Cl)cc1.[Na+] [(10)] )
80

# get_value(readout='% of Baclofen Released', item= CCC[C@H](OC(=O)NC[C@H](CC(=O)[O-])c1ccc(Cl)cc1)OC(=O)C(C)C.[Na+] [(91)] )
78

# get_value(readout='% of Baclofen Released', item= CC(C)C(=O)O[C@H](C)OC(=O)NC[C@H](CC(=O)[O-])c1ccc(Cl)cc1.[Na+] [(34)] )
100
